The values you see were collected from a melting point compilation (Tetko et al.; mined from patent text by program, amines drawn as free bases though some values may be those of a salt).

Attribute: melting point

molecule: Cc1csc2c(CS(=O)c3nc4ccccc4[nH]3)nccc12 (stereo not given)
melting point: 186 to 188 °C
--
molecule: CC1(C)Oc2ccc(S(=O)(=O)c3ccc(O)cc3)cc2[C@@H](Oc2ccc(O)nn2)[C@]1(C)O
melting point: > 200 °C
--
molecule: O=C(Nc1nc2ccc(Sc3cnc4ncccn34)cc2s1)c1ccccc1
melting point: > 260 °C
--
molecule: CCCCNc1c(C(=O)OCC)c(C)nc2sc(C)nc12
melting point: 53 to 54 °C
--
molecule: O=Cc1ccc2c(c1)NC(=O)CO2
melting point: 220 to 222 °C
--
molecule: Cc1ccc(S(=O)(=O)N=CNCc2ccc(-c3csc(N=C(N)N)n3)o2)cc1
melting point: 141 to 142 °C
--
molecule: COC(=O)CCC(=O)c1ccc2oc3ccccc3c2c1
melting point: 106 to 108 °C
--
molecule: COc1ccc2c(c1)C(C)(N1C(=O)c3ccccc3C1=O)C(=O)N2c1ccc(F)cc1 (stereo not given)
melting point: 207 to 208 °C
--
molecule: CCCOc1ccccc1-c1nc2[nH]c(=O)nnc2c(=O)[nH]1
melting point: 298 to 299 °C
--
molecule: CCCCCC(CC(=O)Nc1cc(C(N)=O)ccc1C(C)(C)C)c1cccc(OC)c1OC (stereo not given)
melting point: 89 to 90 °C
--
molecule: COc1ccc(-c2c(Cl)c(CCl)nc3cc(OC)c(OC)cc23)cc1OC
melting point: 206 to 207 °C
--
molecule: CC(=O)NS(=O)(=O)c1ccc(-c2c(-c3cccc(F)c3)noc2C)cc1
melting point: 144 to 145 °C
--
molecule: Cc1csc(-c2nc(-c3ccc(=O)n(C(C)C)n3)c(-c3ccccc3)nc2N)n1
melting point: 238 to 240 °C
--
molecule: O=C(Nc1nc(-c2ccco2)c(-c2ccncc2)s1)c1ccn(Cc2ccccc2)c(=O)c1
melting point: 244 to 248 °C
--
molecule: CCCCCCCCCCCCn1nnc(Nc2ccccc2)n1
melting point: 58 to 61 °C
--
molecule: COC(=O)c1cccc2nc(-c3ccccc3)oc12
melting point: 77 °C
--
molecule: CN(C)Cc1ccc(CSCCNc2ncc(Cc3ccn(C)c(=O)c3)c(=O)[nH]2)o1
melting point: 129 to 132 °C
--
molecule: CC(C)(CCl)C(=O)N(O)Cc1ccccc1Br
melting point: 119 to 121 °C
--
molecule: COc1cccc(NC(=O)c2ccc(C)cc2)c1C(C)=O
melting point: 48 °C
--
molecule: O=C1CCCN1Cc1ccc(CCn2cnc3cc(-c4ccc(Cl)cc4)sc3c2=O)cc1
melting point: 218 to 221 °C
--
molecule: COc1ccc(C(=O)C2=C(O)C(=O)N(C3OCCO3)C2c2ccccc2)cc1 (stereo not given)
melting point: 216 to 219 °C
--
molecule: CN(O)C(=O)c1ccc(OCCOc2ccccc2)cc1
melting point: 134 to 136 °C
--
molecule: CCOC(=O)c1cnn(-c2ccc(Cl)c(Cl)c2)c1C#N
melting point: 79 to 81 °C
--
molecule: CC(C)N1CCC(N2CCN(CCCN3CCOCC3)C2=C(C#N)C#N)CC1
melting point: 109 to 110 °C
--
molecule: CCc1[nH]cc2c1-c1ccc(Cl)cc1C(c1ccccc1Cl)=NC2
melting point: 251 to 253 °C
--
molecule: CC1CC2=C(CCC(O)C2)C2CCC3(C)C(CO)CCC3C12 (stereo not given)
melting point: 64 to 70 °C
--
molecule: COC(=O)C1(C(F)(F)CCCCCOc2ccc(Cl)cc2)CO1 (stereo not given)
melting point: 54 to 55 °C
--
molecule: CN(C)C1(Cc2ccccc2)CCC(O)(c2cc3ccccc3o2)CC1 (stereo not given)
melting point: 121 to 124 °C
--
molecule: Cc1c(C(=O)O)oc2cc(OCCNC[C@H](O)COc3ccccc3)ccc12
melting point: 110 to 111 °C
--
molecule: CN1C(=O)N(C)C(O)(c2ccccc2)c2cc(Cl)ccc21 (stereo not given)
melting point: 174 to 176 °C
--
molecule: CC(C)(C)OC(=O)NNC(=S)Nc1ccc(F)cc1
melting point: 158 to 160 °C
--
molecule: COc1cc2oc(=O)c3c(c2cc1OC)CCN(CCN1CC2CCC1CC2)C3
melting point: 133 to 135 °C
--
molecule: CC(C)C[C@H](N)C(=O)NCCCCNC(=O)c1ccccc1
melting point: 146 to 148 °C
--
molecule: CN(C)C1(c2ccccc2)CC=C(c2cn(S(=O)(=O)c3ccccc3)c3ccccc23)CC1 (stereo not given)
melting point: 165 to 167 °C
--
molecule: Cc1ccc(NC(=O)c2cccc(N3CCOCC3)c2)cc1NC(=O)c1cccc(OC2CCNCC2)c1
melting point: 162 to 166 °C
--
molecule: COc1ccc(-n2c(CC(=O)O)c(C(=O)O)c3cc(Oc4ccc(S(C)(=O)=O)cc4)ccc32)cc1
melting point: 222 °C
--
molecule: Cc1ccc(S(=O)(=O)N(Cc2cc(C(C)(C)C)c(O)c(C(C)(C)C)c2)c2cccnc2Cl)cc1
melting point: 117 to 119 °C
--
molecule: Cc1cc2c(-c3cccc(C=O)c3)c(CC(=O)Nc3ccc(F)cc3C(F)(F)F)c(=O)oc2cc1Cl
melting point: 214 to 215 °C
--
molecule: CNC(=S)Nc1ccc2c(c1)C(=O)C1(CC1)O2
melting point: 191 to 194 °C
--
molecule: COc1ccc(-c2cccc3ccccc23)cc1OC1CCCC1
melting point: 123 to 125 °C

* * *

Here the recorded melting point is given for each entry.
assay.metric: melting point

compound: CC(=NO)c1ccncc1
result: 154 to 155 °C
//
compound: CCOC(=O)C1=C(C)NC(C)=C(C(=O)OCCBr)C1c1cccc([N+](=O)[O-])c1 (configuration not stated)
result: 158 to 159 °C
//
compound: COc1ccc2[nH]cc(C3=CCN(C(=O)NCC4CCC(c5ccccc5)(N(C)C)CC4)CC3)c2c1 (configuration not stated)
result: 98 to 104 °C
//
compound: CC(C)(C)OC(=O)C1Cc2ccccc2CN1C(=O)CBr (configuration not stated)
result: 92 to 95 °C
//
compound: CC(=O)NNc1ccc([N+](=O)[O-])cc1
result: 207 to 209 °C
//
compound: COc1ccc(S(C)=O)cc1C(=O)O (configuration not stated)
result: 114 to 116 °C
//
compound: CC(=O)Oc1ccc(-c2nn(C3CCCC3)c3c(F)cccc23)cc1
result: 90 to 91 °C
//
compound: Nc1ccc(N2CCN(c3ccccn3)CC2)cc1
result: 119 to 120 °C
//
compound: COc1cc(CCC=CC(C)=O)ccc1OCc1ccccc1
result: 59.5 to 60.5 °C
//
compound: CC(C)n1nc(-c2c(OCCN(C)C)nc(N)nc2-c2ccccc2)ccc1=O
result: 130 to 132 °C
//
compound: Cc1ccc(C)c2[nH]c(N)nc12
result: 164 to 170 °C
//
compound: CCCOc1ccc(S(=O)(=O)Cl)cc1C(N)=O
result: 122 to 129 °C
//
compound: COc1ccc(C(=O)Nc2ccccc2)cc1NC(=S)Nc1ccc(OC)c(OC)c1
result: 170 to 171 °C
//
compound: NC(=O)CCC(N)CO (configuration not stated)
result: 92 to 95 °C
//
compound: CC1(C2CCCC2)Cc2cc(NCCO)c(Cl)c(Cl)c2C1=O (configuration not stated)
result: 135 to 136 °C
//
compound: COC1C(O)C(CO)OC1n1cnc2c(=S)n(C)cnc21 (configuration not stated)
result: 182 to 187 °C
//
compound: O=C(NC1CCC(c2cc(Nc3cccc(C(F)(F)F)c3)n[nH]2)C1)c1ccccn1 (configuration not stated)
result: 162 °C
//
compound: COC(=O)c1cccc(CN2C(=O)C(CCO)Oc3ccccc32)c1 (configuration not stated)
result: 73 to 75 °C
//
compound: CC(C)C(NC(=O)OCc1cccnc1)C(=O)NC(Cc1ccccc1)C(O)C(O)C(Cc1ccccc1)NC(=O)C(NC(=O)OCc1cccnc1)C(C)C (configuration not stated)
result: 202 to 207 °C
//
compound: CN1C(O)=C(C(=O)Nc2ccc(Br)cc2)c2cscc2S1(=O)=O
result: 138 to 140 °C
//
compound: Cc1ccc(C)n1-c1cc2c(cc1C(F)(F)F)[nH]c(=O)c(=O)n2CCC(=O)NCc1ccccc1
result: 260 to 262 °C
//
compound: CCOP(=O)(Cc1cc2c(cc1CP(=O)(OCC)OCC)C(CC)(CC)N(Cc1ccccc1)C2(CC)CC)OCC
result: 81 to 83 °C
//
compound: COc1ccc(CCc2oc3ccc(C#N)cc3c2C(=O)O)cc1
result: 205 to 208 °C
//
compound: OCC1Oc2ccccc2OC1CO (configuration not stated)
result: 119 to 120 °C
//
compound: O=c1[nH][nH]c(=O)c2c(O)c3ccccc3nc12
result: > 400 °C
//
compound: CCCCCCCCCCCCc1ccc(NC(C)=O)c([N+](=O)[O-])c1
result: 71 to 73 °C
//
compound: Cc1ccc(C(=O)Nc2cccc(C(F)(F)F)c2)cc1Br
result: 157 to 158 °C
//
compound: COC(=O)c1nc(O)ccc1OCc1ccccc1
result: 91 to 92 °C
//
compound: Cc1cccc2c1Sc1nccnc1N2
result: 165 to 166 °C
//
compound: Cn1c(=O)c2c(ncn2CCCN2CCN(c3nccnc3Cl)CC2)n(C)c1=O
result: 205 to 207 °C
//
compound: CCCC1=C(C(=O)OCC)C(c2sccc2C)c2c[nH]nc2N1 (configuration not stated)
result: 125 °C
//
compound: COC(=O)CSc1nc(N)c(C=O)nc1Cl
result: 103 to 104 °C
//
compound: Cn1c2c(c3ccccc31)OCC2=O
result: 113 to 116 °C
//
compound: O=C(O)C1=Cc2cc(-c3ccc(F)cc3)ccc2CC1
result: 213 to 214 °C
//
compound: COc1ccc(N2CCN(c3ccc(-n4cnn(CC(F)(F)F)c4=O)cc3)CC2)cc1
result: 208 °C
//
compound: C[C@@H](n1cnc2cc(F)ccc2c1=O)[C@](O)(Cn1cncn1)c1ccc(F)cc1F
result: 106 to 107 °C
//
compound: Cc1ccc(Oc2nc3ccc(N=C=S)cc3s2)cc1
result: 121 to 123 °C
//
compound: Cc1oc(-c2ccc(F)cc2)cc1C(=O)Nc1cccc(CSCC(=O)O)c1
result: 198 to 199 °C
//
compound: CN(c1cccc2cc(-c3ncc(CCl)s3)[nH]c12)S(=O)(=O)c1cccs1
result: 204 to 205 °C
//
compound: O=C(O)c1cnccc1C(=O)c1ccc(F)cc1
result: 231 to 232 °C
//
compound: O=C1C(=O)N(Cc2ccc(F)nc2)c2ccc(S(=O)(=O)N3CC[C@H]3COc3ccccc3)cc21
result: 177 to 178 °C
//
compound: COc1cc(N)c(Cl)cc1C(=O)NCC1CCN(CCCCCC(=O)c2ccccc2)CC1
result: 138 to 141 °C
